B1: HDV Ribozyme (parent)
chain: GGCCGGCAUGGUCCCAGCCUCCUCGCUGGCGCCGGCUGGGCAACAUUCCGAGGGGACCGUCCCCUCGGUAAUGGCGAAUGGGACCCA

variants of: B1; experiment: self-cleavage, relative activity (ratio to wild type); higher = more cleavage; co-transcriptional
observable: self-cleavage
Could you respond with only the numeric value?

Ask | For C21U U65A , write its self-cleavage.
Reply | 0.293

Ask | For C26G G80U , write its self-cleavage.
Reply | 0.261

Ask | For C32A A51G , write its self-cleavage.
Reply | 0.162

Ask | For U46G A70C , write its self-cleavage.
Reply | 0.665

Ask | For G39A C84U , write its self-cleavage.
Reply | 0.321

Ask | For G25C U47G , write its self-cleavage.
Reply | 0.119

Ask | For C49U G68A , write its self-cleavage.
Reply | 0.987

Ask | For C15U C41U , write its self-cleavage.
Reply | 1.05

Ask | For C33G G55C , write its self-cleavage.
Reply | 0.158

Ask | For G25U C36G , write its self-cleavage.
Reply | 0.108

Ask | For G34A G73C , write its self-cleavage.
Reply | 0.147

Ask | For U69A C86G , write its self-cleavage.
Reply | 1.09

Ask | For "G53A" , write its self-cleavage.
Reply | 1

Ask | For A45U C86U , write its self-cleavage.
Reply | 0.95

Ask | For C57G G76A , write its self-cleavage.
Reply | 1.04

Ask | For G38C G76A , write its self-cleavage.
Reply | 0.205

Ask | For C21U C62A , write its self-cleavage.
Reply | 0.214

Ask | For G17C G67C , write its self-cleavage.
Reply | 0.289

Ask | For A8C C84A , write its self-cleavage.
Reply | 0.751

Ask | For G5C U37A , write its self-cleavage.
Reply | 0.104

Ask | For G5C G52U , write its self-cleavage.
Reply | 0.23

Ask | For C26A U37C , write its self-cleavage.
Reply | 1.13

Ask | For U79A C84U , write its self-cleavage.
Reply | 0.314

Ask | For C26G C44G , write its self-cleavage.
Reply | 0.554

Ask | For C44A G80A , write its self-cleavage.
Reply | 0.169

Ask | For U12A A16U , write its self-cleavage.
Reply | 0.32

Ask | For A51U A83C , write its self-cleavage.
Reply | 0.269

Ask | For U27G G67A , write its self-cleavage.
Reply | 1.1

Ask | For C14G G76A , write its self-cleavage.
Reply | 0.831

Ask | For C7A A16C , write its self-cleavage.
Reply | 0.277

Ask | For C44A C64G , write its self-cleavage.
Reply | 0.814

Ask | For C4G C63U , write its self-cleavage.
Reply | 0.249

Ask | For G52C C58U , write its self-cleavage.
Reply | 1.24

Ask | For C33G C49G , write its self-cleavage.
Reply | 0.0978

Ask | For C32G G54A , write its self-cleavage.
Reply | 0.0898

Ask | For G68C A87G , write its self-cleavage.
Reply | 0.948

Ask | For G35U G50U , write its self-cleavage.
Reply | 0.426

Ask | For G59C C85A , write its self-cleavage.
Reply | 0.937

Ask | For G10C C14A , write its self-cleavage.
Reply | 0.237

Ask | For U27C A71U , write its self-cleavage.
Reply | 0.639

Ask | For A51C G81U , write its self-cleavage.
Reply | 0.38

Ask | For G11U A83C , write its self-cleavage.
Reply | 0.119

Ask | For G38A G82U , write its self-cleavage.
Reply | 0.0405

Ask | For G73C G82U , write its self-cleavage.
Reply | 0.0707

Ask | For C36U G67C , write its self-cleavage.
Reply | 0.831

Ask | For C7U C14G , write its self-cleavage.
Reply | 0.308
